Could you please report measured MC3R selectivity (relative to MC4R) for the items listed next?
subjectOfTest: human MC3R (human, UniProt P41968 1-323)
Sequence (P41968 whole entry): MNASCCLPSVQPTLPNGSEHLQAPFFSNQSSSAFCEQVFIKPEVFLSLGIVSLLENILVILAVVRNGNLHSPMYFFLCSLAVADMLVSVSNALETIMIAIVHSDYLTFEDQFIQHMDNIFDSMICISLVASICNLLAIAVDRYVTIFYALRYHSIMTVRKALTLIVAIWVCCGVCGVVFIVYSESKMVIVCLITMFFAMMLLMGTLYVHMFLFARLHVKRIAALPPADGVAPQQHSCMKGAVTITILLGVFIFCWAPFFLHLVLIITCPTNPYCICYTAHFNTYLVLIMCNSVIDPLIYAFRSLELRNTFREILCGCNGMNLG
methodSummary: cell-based or functional assay
Non-standard residues stand in square brackets, D forms with d. Nle = CCCC[C@H](N)C(=O)O

In: State the recorded MC3R selectivity (relative to MC4R) for this entry: Ac-[Nle][dP]HFR[dW]DRFG-OH (SMILES CCCC[C@H](NC(C)=O)C(=O)N1CCC[C@@H]1C(=O)N[C@@H](Cc1c[nH]cn1)C(=O)N[C@@H](Cc1ccccc1)C(=O)N[C@@H](CCCNC(=N)N)C(=O)N[C@H](Cc1c[nH]c2ccccc12)C(=O)N[C@@H](CC(=O)O)C(=O)N[C@@H](CCCNC(=N)N)C(=O)N[C@@H](Cc1ccccc1)C(=O)NCC(=O)O) [CTX-1184]
Out: 28

In: State the recorded MC3R selectivity (relative to MC4R) for this entry: Ac-[Nle][dA]HFR[dW]DR-NH2 (SMILES CCCC[C@H](NC(C)=O)C(=O)N[C@H](C)C(=O)N[C@@H](Cc1c[nH]cn1)C(=O)N[C@@H](Cc1ccccc1)C(=O)N[C@@H](CCCNC(=N)N)C(=O)N[C@H](Cc1c[nH]c2ccccc12)C(=O)N[C@@H](CC(=O)O)C(=O)N[C@@H](CCCNC(=N)N)C(N)=O) [CTX-1163]
Out: 282
